target: DNA repair protein RAD51 homolog 1 (Homo sapiens) (UniProt Q06609); experiment: Inhibition of RAD51 (unknown origin) binding to ssDNA
Sequence (Q06609 whole entry, looked up): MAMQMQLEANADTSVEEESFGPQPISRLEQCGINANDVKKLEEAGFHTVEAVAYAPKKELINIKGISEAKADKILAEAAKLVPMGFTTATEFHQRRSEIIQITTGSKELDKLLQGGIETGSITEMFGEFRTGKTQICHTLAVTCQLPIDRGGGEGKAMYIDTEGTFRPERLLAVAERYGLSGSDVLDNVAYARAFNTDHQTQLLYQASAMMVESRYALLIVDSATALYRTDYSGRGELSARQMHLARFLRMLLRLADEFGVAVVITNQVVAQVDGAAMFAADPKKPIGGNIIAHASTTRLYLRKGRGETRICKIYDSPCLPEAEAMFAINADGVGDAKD
quantityKind: pEC50
On this scale, pEC50 is minus log10 of a concentration expressed in M (mol/L).

Qu. API: value(readout= pEC50, system= DNA repair protein RAD51 homolog 1 (Homo sapiens) (UniProt Q06609), query= COc1ccc(C2=C(N3CCOCC3)C(=O)N(c3ccc(Cl)c(Cl)c3)C2=O)cc1 )
Ans. 4.36
